The entries below come with measured pIC50 values attached.
Target: NAD-dependent protein deacylase sirtuin-5, mitochondrial (Homo sapiens, UniProt Q9NXA8)
Sequence (Q9NXA8 whole entry, the tested form may be a part): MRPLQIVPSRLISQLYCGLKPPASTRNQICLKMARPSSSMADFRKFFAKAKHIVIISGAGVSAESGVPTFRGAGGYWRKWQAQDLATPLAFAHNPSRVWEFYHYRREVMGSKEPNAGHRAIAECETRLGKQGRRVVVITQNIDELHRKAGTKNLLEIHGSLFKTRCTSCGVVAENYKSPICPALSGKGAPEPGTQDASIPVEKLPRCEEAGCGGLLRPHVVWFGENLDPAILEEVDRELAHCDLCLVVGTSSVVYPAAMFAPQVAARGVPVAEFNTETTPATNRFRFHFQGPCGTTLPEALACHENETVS
Assay: Inhibition of N-terminal 8His-tagged human SIRT5 (34 to 302 residues) expressed in Escherichia coli Rosetta2 (DE3) using Abz-GVLKacAYNO2GY-NH2 peptide as substrate incubated for 30 mins in presence of NAD+ by fluorescence microplate reader assay
Settings: read-out: IC50
pIC50 is a log-scale quantity: -log10 of the concentration expressed in molar.

The cases that follow already have their pIC50 on record.
- O=C1OC(c2ccccc2)OC(=O)C1=Cc1cc(I)c(O)c(I)c1 (centres undefined): 5.30
- COc1cc(C=C2C(=O)OC(c3ccccc3)OC2=O)cc(I)c1O (centres undefined): 4.65
- O=C1OC(c2ccccc2)OC(=O)C1=Cc1cc(Cl)c(O)c(Cl)c1 (centres undefined): 4.43

Consider the record given below.
Requested read-out: pIC50. Entry: COc1cc(C=C2C(=O)OC(c3ccccc3)OC2=O)cc(Br)c1O (centres undefined)
4.70

meta.source: ChEMBL document CHEMBL4680375
